- Measurement Target: UniProt P42336
- Sequence (P42336 whole entry): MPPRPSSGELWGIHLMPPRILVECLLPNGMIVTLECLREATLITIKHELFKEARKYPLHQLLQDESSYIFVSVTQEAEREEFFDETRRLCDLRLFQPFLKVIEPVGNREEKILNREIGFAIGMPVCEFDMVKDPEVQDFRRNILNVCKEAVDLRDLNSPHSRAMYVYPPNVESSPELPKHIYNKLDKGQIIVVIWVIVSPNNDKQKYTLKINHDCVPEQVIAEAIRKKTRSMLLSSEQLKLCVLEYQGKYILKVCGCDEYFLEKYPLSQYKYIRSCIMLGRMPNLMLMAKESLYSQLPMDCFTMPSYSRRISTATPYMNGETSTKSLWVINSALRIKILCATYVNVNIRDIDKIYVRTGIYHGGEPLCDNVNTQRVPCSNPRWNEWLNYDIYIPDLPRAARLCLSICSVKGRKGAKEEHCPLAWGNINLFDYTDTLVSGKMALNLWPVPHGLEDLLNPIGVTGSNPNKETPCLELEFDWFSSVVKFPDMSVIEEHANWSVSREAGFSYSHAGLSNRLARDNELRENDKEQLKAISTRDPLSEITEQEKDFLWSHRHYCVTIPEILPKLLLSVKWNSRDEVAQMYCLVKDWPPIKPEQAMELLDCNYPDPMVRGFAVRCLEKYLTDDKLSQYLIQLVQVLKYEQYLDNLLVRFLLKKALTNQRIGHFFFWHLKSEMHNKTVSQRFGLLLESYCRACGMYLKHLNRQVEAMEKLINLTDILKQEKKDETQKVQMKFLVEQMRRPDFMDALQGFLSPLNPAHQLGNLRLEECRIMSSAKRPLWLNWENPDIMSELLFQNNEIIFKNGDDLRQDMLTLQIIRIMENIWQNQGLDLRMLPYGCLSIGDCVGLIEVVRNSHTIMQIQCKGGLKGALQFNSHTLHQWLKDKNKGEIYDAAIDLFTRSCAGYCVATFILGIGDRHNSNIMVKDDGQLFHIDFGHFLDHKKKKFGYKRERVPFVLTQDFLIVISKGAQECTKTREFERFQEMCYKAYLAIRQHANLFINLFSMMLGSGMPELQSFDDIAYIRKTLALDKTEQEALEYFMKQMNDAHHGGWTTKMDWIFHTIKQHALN
- Sequence (P27986 whole entry partner): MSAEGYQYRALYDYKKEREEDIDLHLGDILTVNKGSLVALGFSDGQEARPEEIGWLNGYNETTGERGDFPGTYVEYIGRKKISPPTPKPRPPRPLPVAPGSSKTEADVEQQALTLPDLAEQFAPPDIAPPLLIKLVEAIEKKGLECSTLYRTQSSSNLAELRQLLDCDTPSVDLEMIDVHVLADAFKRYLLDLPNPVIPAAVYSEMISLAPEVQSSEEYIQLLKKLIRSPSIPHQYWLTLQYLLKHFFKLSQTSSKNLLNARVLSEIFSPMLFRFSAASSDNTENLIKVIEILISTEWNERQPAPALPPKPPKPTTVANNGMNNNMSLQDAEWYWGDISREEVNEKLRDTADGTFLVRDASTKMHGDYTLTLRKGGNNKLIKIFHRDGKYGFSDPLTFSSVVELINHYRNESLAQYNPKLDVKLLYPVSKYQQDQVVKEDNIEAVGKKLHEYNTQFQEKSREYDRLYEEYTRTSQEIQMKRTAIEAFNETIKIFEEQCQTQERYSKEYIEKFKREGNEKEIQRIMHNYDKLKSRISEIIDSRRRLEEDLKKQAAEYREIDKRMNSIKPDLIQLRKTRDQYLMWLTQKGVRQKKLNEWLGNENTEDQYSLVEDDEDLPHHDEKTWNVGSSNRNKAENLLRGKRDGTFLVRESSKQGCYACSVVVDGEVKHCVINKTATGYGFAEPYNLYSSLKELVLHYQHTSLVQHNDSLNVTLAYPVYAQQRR
- Recorded Conditions: read-out: PI3Kα AlphaScreen ® Ki
Endpoint: Ki (nM)

# Molecule, Ki, nM
rows = [
    ("COc1cncc(Nc2ncccc2-c2nc(C)nc3[nH]cnc23)c1 [Example 183]", 26),
    ("COc1ncc(Nc2ncc([C@@H](C)N3CCOCC3)cc2-c2cc(N)nc(C)n2)cc1F [Example 276]", 17),
]

1 = COc1ccc(Nc2ncc(N3CCC[C@@H]3CO)cc2-c2nc(C)nc3[nH]cnc23)cn1 [Example 101]
2 = COc1ccc(Nc2ncc(CN3CCOC[C@@H]3C)cc2-c2nc(C)nc(N)n2)cn1 [Example 219]
Query: Among 1 and 2 , whose measured Ki is the smaller figure? Please reply using the label of the selected record.
Result: 1
(1: 40 nM, 2: 93 nM)

----------
- Measurement Target: ProfilerPro Kinase Selectivity Assay Kit kinases (Homo sapiens, UniProt P36888)
- Sequence (P36888 27-993 limits assumed): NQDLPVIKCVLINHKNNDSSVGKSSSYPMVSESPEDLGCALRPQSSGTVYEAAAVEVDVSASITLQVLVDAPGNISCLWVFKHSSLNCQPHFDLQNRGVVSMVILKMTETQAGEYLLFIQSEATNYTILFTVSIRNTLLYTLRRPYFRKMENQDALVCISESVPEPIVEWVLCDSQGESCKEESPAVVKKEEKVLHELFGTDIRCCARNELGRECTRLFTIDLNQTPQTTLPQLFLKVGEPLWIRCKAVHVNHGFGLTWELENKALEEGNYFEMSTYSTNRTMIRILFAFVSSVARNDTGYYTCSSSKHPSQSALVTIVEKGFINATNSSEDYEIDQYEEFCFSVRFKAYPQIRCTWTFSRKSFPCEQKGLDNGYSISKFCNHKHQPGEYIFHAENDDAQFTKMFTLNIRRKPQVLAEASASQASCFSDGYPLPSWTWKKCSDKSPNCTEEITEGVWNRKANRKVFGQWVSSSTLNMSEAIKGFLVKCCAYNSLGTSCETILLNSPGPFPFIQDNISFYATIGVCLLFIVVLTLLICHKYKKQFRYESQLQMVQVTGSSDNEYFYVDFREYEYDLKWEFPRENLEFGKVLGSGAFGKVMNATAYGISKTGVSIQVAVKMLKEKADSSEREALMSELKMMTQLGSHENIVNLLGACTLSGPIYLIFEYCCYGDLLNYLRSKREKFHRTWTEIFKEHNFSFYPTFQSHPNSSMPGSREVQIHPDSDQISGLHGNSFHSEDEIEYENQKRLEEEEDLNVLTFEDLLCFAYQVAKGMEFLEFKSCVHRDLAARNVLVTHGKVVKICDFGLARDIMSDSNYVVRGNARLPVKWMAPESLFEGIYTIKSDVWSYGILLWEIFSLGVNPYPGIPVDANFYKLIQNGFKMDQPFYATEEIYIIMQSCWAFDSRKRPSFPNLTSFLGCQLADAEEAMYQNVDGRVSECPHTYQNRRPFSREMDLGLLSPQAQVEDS
- Assay type: biochemical
- Recorded Conditions: FLT3; 1 μM compound concentration
Endpoint: POC (Percent of control) FLT3 (POC)

As a guide, the following entries are already answered.
# Structure As Smiles, POC (Percent of control) FLT3 / POC
measured = [
    ("Cc1cnc(Nc2cccc3[nH]ccc23)c(-c2nc(C)nc(N)n2)c1", 99),
    ("c1cnc(Nc2cccc3[nH]ncc23)c(-c2ncnc3[nH]cnc23)c1", 106),
    ("Cc1nc(N)nc(-c2cc(CN3CCN(S(C)(=O)=O)CC3)cnc2Nc2cccc(O)c2)n1", 99),
]

a = COc1ccc(Nc2ncc(CN3CCN(C(C)=O)CC3)cc2-c2nc(C)nc3[nH]cnc23)cn1
b = c1cnc(Nc2cccc3[nH]ccc23)c(-c2ncnc3[nH]cnc23)c1
Query: Please indicate which item has the smaller measured POC (Percent of control) FLT3: a versus b Answer with the label corresponding to your selection.
Result: b

P = CCc1cnc(Nc2ccc(OC)nc2)c(-c2nc(C)nc3[nH]cnc23)c1
Q = Cc1nc(N)cc(-c2cccnc2Nc2cccc3[nH]ncc23)n1
Query: Sort P and Q by POC (Percent of control) FLT3 descending and give the first. Please reply using the label of the selected record.
Result: P

----------
- Measurement Target: ProfilerPro Kinase Selectivity Assay Kit kinases (Homo sapiens, UniProt P24941)
- Assay type: biochemical
- Recorded Conditions: CDK2; 1 μM compound concentration
Endpoint: POC (Percent of control) CDK2 (POC)

# Structure As Smiles, Measurement Target, Unit String, POC (Percent of control) CDK2
records = [
    ("COc1ccc(Nc2ncccc2-c2nc(C)nc3[nH]cnc23)cn1", "ProfilerPro Kinase Selectivity Assay Kit kinases (Homo sapiens, UniProt P24941)", "POC", 99),
    ("Cc1cnc(Nc2cccc3[nH]ccc23)c(-c2nc(C)nc(N)n2)c1", "ProfilerPro Kinase Selectivity Assay Kit kinases (Homo sapiens, UniProt P24941)", "POC", 97),
    ("Cc1nc(N)cc(-c2cccnc2Nc2cccc3[nH]ncc23)n1", "ProfilerPro Kinase Selectivity Assay Kit kinases (Homo sapiens, UniProt P24941)", "POC", 84),
    ("COc1ccc(Nc2ncc(CN3CCN(C(C)=O)CC3)cc2-c2nc(C)nc3[nH]cnc23)cn1", "ProfilerPro Kinase Selectivity Assay Kit kinases (Homo sapiens, UniProt P24941)", "POC", 96),
    ("COc1ccc(Nc2ncccc2-c2ncnc3[nH]cnc23)cn1", "ProfilerPro Kinase Selectivity Assay Kit kinases (Homo sapiens, UniProt P24941)", "POC", 96),
    ("Cc1nc(-c2cccnc2Nc2cccc3[nH]ncc23)c2nc[nH]c2n1", "ProfilerPro Kinase Selectivity Assay Kit kinases (Homo sapiens, UniProt P24941)", "POC", 95),
    ("Cc1nc(N)nc(-c2cc(CN3CCN(S(C)(=O)=O)CC3)cnc2Nc2cccc(O)c2)n1", "ProfilerPro Kinase Selectivity Assay Kit kinases (Homo sapiens, UniProt P24941)", "POC", 101),
    ("Cc1nc(N)nc(-c2cccnc2Nc2cccc(O)c2)n1", "ProfilerPro Kinase Selectivity Assay Kit kinases (Homo sapiens, UniProt P24941)", "POC", 106),
    ("c1cnc(Nc2cccc3[nH]ncc23)c(-c2ncnc3[nH]cnc23)c1", "ProfilerPro Kinase Selectivity Assay Kit kinases (Homo sapiens, UniProt P24941)", "POC", 91),
    ("Cc1nc(N)nc(-c2cccnc2Nc2cccc3[nH]ccc23)n1", "ProfilerPro Kinase Selectivity Assay Kit kinases (Homo sapiens, UniProt P24941)", "POC", 107),
    ("Cc1cnc(Nc2cccc3[nH]ncc23)c(-c2nc(C)nc(N)n2)c1", "ProfilerPro Kinase Selectivity Assay Kit kinases (Homo sapiens, UniProt P24941)", "POC", 93),
    ("CCc1cnc(Nc2ccc(OC)nc2)c(-c2nc(C)nc3[nH]cnc23)c1", "ProfilerPro Kinase Selectivity Assay Kit kinases (Homo sapiens, UniProt P24941)", "POC", 96),
    ("COc1ccc(Nc2ncc(Cc3ccc(S(C)(=O)=O)cc3)cc2-c2nc(C)nc3[nH]cnc23)cn1", "ProfilerPro Kinase Selectivity Assay Kit kinases (Homo sapiens, UniProt P24941)", "POC", 100),
    ("c1cnc(Nc2cccc3[nH]ccc23)c(-c2ncnc3[nH]cnc23)c1", "ProfilerPro Kinase Selectivity Assay Kit kinases (Homo sapiens, UniProt P24941)", "POC", 90),
]

----------
- Measurement Target: ProfilerPro Kinase Selectivity Assay Kit kinases (Homo sapiens, UniProt Q15418)
- Assay type: biochemical
- Recorded Conditions: RSK1; 1 μM compound concentration
Endpoint: POC (Percent of control) RSK1 (POC)

# Structure As Smiles, Measurement Target, POC (Percent of control) RSK1, POC
rows = [
    ("Cc1nc(N)nc(-c2cc(CN3CCN(S(C)(=O)=O)CC3)cnc2Nc2cccc(O)c2)n1", "ProfilerPro Kinase Selectivity Assay Kit kinases (Homo sapiens, UniProt Q15418)", 103),
    ("COc1ccc(Nc2ncccc2-c2nc(C)nc3[nH]cnc23)cn1", "ProfilerPro Kinase Selectivity Assay Kit kinases (Homo sapiens, UniProt Q15418)", 94),
    ("Cc1cnc(Nc2cccc3[nH]ncc23)c(-c2nc(C)nc(N)n2)c1", "ProfilerPro Kinase Selectivity Assay Kit kinases (Homo sapiens, UniProt Q15418)", 105),
    ("COc1ccc(Nc2ncccc2-c2ncnc3[nH]cnc23)cn1", "ProfilerPro Kinase Selectivity Assay Kit kinases (Homo sapiens, UniProt Q15418)", 97),
    ("c1cnc(Nc2cccc3[nH]ccc23)c(-c2ncnc3[nH]cnc23)c1", "ProfilerPro Kinase Selectivity Assay Kit kinases (Homo sapiens, UniProt Q15418)", 87),
]

----------
- Measurement Target: ProfilerPro Kinase Selectivity Assay Kit kinases (Homo sapiens, UniProt P43405)
- Format: biochemical
- Recorded Conditions: SYK; 1 μM compound concentration
Endpoint: POC (Percent of control) SYK (POC)

Known POC (Percent of control) SYK results, listed for orientation:
# Structure As Smiles, Unit String, POC (Percent of control) SYK
measured = [
    ("Cc1nc(N)nc(-c2cccnc2Nc2cccc(O)c2)n1", "POC", 110),
    ("CCc1cnc(Nc2ccc(OC)nc2)c(-c2nc(C)nc3[nH]cnc23)c1", "POC", 97),
    ("COc1ccc(Nc2ncccc2-c2nc(C)nc3[nH]cnc23)cn1", "POC", 86),
    ("Cc1cnc(Nc2cccc3[nH]ncc23)c(-c2nc(C)nc(N)n2)c1", "POC", 95),
    ("Cc1nc(N)nc(-c2cc(CN3CCN(S(C)(=O)=O)CC3)cnc2Nc2cccc(O)c2)n1", "POC", 106),
]

1 = Cc1nc(-c2cccnc2Nc2cccc3[nH]ncc23)c2nc[nH]c2n1
2 = c1cnc(Nc2cccc3[nH]ncc23)c(-c2ncnc3[nH]cnc23)c1
Query: Which record would sort first by descending POC (Percent of control) SYK, 1 or 2 ? Returns: label corresponding to the selected item.
Result: 1
(1: 100 POC, 2: 63 POC)

----------
- Measurement Target: ProfilerPro Kinase Selectivity Assay Kit kinases (Homo sapiens)
- Assay type: biochemical
- Recorded Conditions: MSK1; 1 μM compound concentration
Endpoint: POC (Percent of control) MSK1 (POC)

# Structure As Smiles, Unit String, Reported Result
rows = [
    ("Cc1nc(N)nc(-c2cc(CN3CCN(S(C)(=O)=O)CC3)cnc2Nc2cccc(O)c2)n1", "POC", 90),
    ("COc1ccc(Nc2ncc(Cc3ccc(S(C)(=O)=O)cc3)cc2-c2nc(C)nc3[nH]cnc23)cn1", "POC", 101),
    ("COc1ccc(Nc2ncc(CN3CCN(C(C)=O)CC3)cc2-c2nc(C)nc3[nH]cnc23)cn1", "POC", 91),
    ("Cc1cnc(Nc2cccc3[nH]ncc23)c(-c2nc(C)nc(N)n2)c1", "POC", 76),
    ("Cc1cnc(Nc2cccc3[nH]ccc23)c(-c2nc(C)nc(N)n2)c1", "POC", 103),
    ("Cc1nc(N)cc(-c2cccnc2Nc2cccc3[nH]ncc23)n1", "POC", 94),
    ("COc1ccc(Nc2ncccc2-c2ncnc3[nH]cnc23)cn1", "POC", 93),
    ("Cc1nc(-c2cccnc2Nc2cccc3[nH]ncc23)c2nc[nH]c2n1", "POC", 101),
    ("COc1ccc(Nc2ncccc2-c2nc(C)nc3[nH]cnc23)cn1", "POC", 98),
]
